# targetOrSystem: UniProt P00772
Where a SMILES comes first, the peptide text is derived from it. [ ]: non-standard residue; d: D form. Gly(octyl) = CCCCCCCC[C@H](N)C(=O)O; Dap = NC[C@H](N)C(=O)O
testReadout: pIC50
Worth noting: pIC50 values are minus log10 of concentrations stated in mol/L.

Query: // fetch pIC50; item: CCCCCCCC[C@@H]1NC(=O)[C@@H]2CCCN2C(=O)[C@H]2CCCN2C(=O)[C@H](CN)NC(=O)[C@H](CCCCN)NC(=O)[C@H](CCC(N)=O)NC(=O)[C@@H]2CCCN2C(=O)[C@@H]2CCCN2C(=O)[C@H]([C@@H](C)CC)NC(=O)[C@H](CO)NC(=O)[C@H](C)NC(=O)[C@H]([C@@H](C)O)NC(=O)[C@H](CCC(=O)O)NC1=O [Example 2] (cyclo([Gly(octyl)]ETASIPPQK[Dap][dP]P)) ; system: UniProt P00772
Response: 5.92

====

# targetOrSystem: porcine pancreatic elastase (Sus scrofa, UniProt P00772)
# Construct: purchased Sigma, USA
# Sequence (P00772 27-266): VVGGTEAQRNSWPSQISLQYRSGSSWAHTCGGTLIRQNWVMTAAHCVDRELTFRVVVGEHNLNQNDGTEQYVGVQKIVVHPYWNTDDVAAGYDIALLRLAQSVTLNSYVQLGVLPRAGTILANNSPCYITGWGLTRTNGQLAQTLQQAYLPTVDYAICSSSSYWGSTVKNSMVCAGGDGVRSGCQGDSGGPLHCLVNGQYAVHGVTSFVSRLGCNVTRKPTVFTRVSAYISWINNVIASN
# experimentDescription: Inhibition of porcine pancreatic elastase (hydrolysis of MeOSuc-AAA-pNA)
# Type: biochemical
# measurementParameters: ratio of PPE IC50 to hNE IC50
Where a SMILES comes first, the peptide text is derived from it. [ ]: non-standard residue; d: D form. Oic = O=C(O)[C@@H]1C[C@@H]2CCCC[C@@H]2N1; Gly(octyl) = CCCCCCCC[C@H](N)C(=O)O; N(CH2CH2COOH)Gly = O=C(O)CCNCC(=O)O; hTyr = N[C@@H](CCc1ccc(O)cc1)C(=O)O; hSer = N[C@@H](CCO)C(=O)O; Dab = NCC[C@H](N)C(=O)O
testReadout: hNE/PPE selectivity
Please give the numeric answer without any surrounding text.

The following compounds have reported results that may help.
compound="CCCCCCCC[C@@H]1NC(=O)[C@@H]2CCCN2C(=O)[C@H]2CCCN2C(=O)[C@H]([C@@H](C)O)NC(=O)[C@H](CCCCN)NC(=O)[C@H](CCC(N)=O)NC(=O)[C@@H]2CCCN2C(=O)CN(CCC(=O)O)C(=O)[C@H]([C@@H](C)CC)NC(=O)[C@H](CO)NC(=O)[C@H](C)NC(=O)[C@H]([C@@H](C)O)NC(=O)[C@H](CCC(=O)O)NC1=O [Example 7] (cyclo([Gly(octyl)]ETASI[N(CH2CH2COOH)Gly]PQKT[dP]P))" reportedvalue=295
compound="CCCCCCCC[C@@H]1NC(=O)[C@H](C(C)C)NC(=O)[C@@H](CCCCN)NC(=O)[C@H]([C@@H](C)O)NC(=O)[C@H](CCCCN)NC(=O)[C@H](CCC(N)=O)NC(=O)[C@@H]2CCCN2C(=O)[C@@H]2CCCN2C(=O)[C@H]([C@@H](C)CC)NC(=O)[C@H](CO)NC(=O)[C@H](C)NC(=O)[C@H]([C@@H](C)O)NC(=O)[C@H](CCC(=O)O)NC1=O [Example 26] (cyclo([Gly(octyl)]ETASIPPQKT[dK]V))" reportedvalue=4415

Query: Quote porcine pancreatic elastase (Sus scrofa, UniProt P00772) hNE/PPE selectivity for entry CC[C@H](C)[C@@H]1NC(=O)[C@H](CO)NC(=O)[C@H](C)NC(=O)[C@H]([C@@H](C)O)NC(=O)[C@H](CCC(=O)O)NC(=O)[C@H](CCNC(=O)[C@@H](N)Cc2ccccc2)NC(=O)[C@@H]2CCCN2C(=O)[C@H]2CCCN2C(=O)[C@H](Cc2ccc(O)cc2)NC(=O)[C@H](CCCCN)NC(=O)[C@H](CCC(N)=O)NC(=O)[C@@H]2CCCN2C(=O)[C@@H]2CCCN2C1=O [Example 9] (cyclo([Dab](Phe)ETASIPPQKY[dP]P)) .
Response: 215

Query: Answer briefly: hNE/PPE selectivity recorded on porcine pancreatic elastase (Sus scrofa, UniProt P00772) for CCCCCCCC[C@@H]1NC(=O)[C@@H]2CCCN2C(=O)[C@H]2CCCN2C(=O)[C@H]([C@@H](C)O)NC(=O)[C@H](CCCCN)NC(=O)[C@H](CCC(N)=O)NC(=O)[C@@H]2C[C@@H]3CCCC[C@@H]3N2C(=O)[C@@H]2CCCN2C(=O)[C@H]([C@@H](C)CC)NC(=O)[C@H](CO)NC(=O)[C@H](C)NC(=O)[C@H]([C@@H](C)O)NC(=O)[C@H](CCC(=O)O)NC1=O [Example 10] (cyclo([Gly(octyl)]ETASIP[Oic]QKT[dP]P))
Response: 4959

Query: Report hNE/PPE selectivity on porcine pancreatic elastase (Sus scrofa, UniProt P00772) for this entry: CCCCCCCC[C@@H]1NC(=O)[C@@H]2C[C@@H]3CCCC[C@@H]3N2C(=O)[C@H]2CCCN2C(=O)[C@H]([C@@H](C)O)NC(=O)[C@H](CCCCN)NC(=O)[C@H](CCC(N)=O)NC(=O)[C@@H]2CCCN2C(=O)[C@@H]2CCCN2C(=O)[C@H]([C@@H](C)CC)NC(=O)[C@H](CO)NC(=O)[C@H](C)NC(=O)[C@H]([C@@H](C)O)NC(=O)[C@H](CCC(=O)O)NC1=O [Example 6] (cyclo([Gly(octyl)]ETASIPPQKT[dP][Oic]))
Response: 321

Query: For porcine pancreatic elastase (Sus scrofa, UniProt P00772), give the measured hNE/PPE selectivity of the entry CCCCCCCC[C@@H]1NC(=O)[C@@H]2CCCN2C(=O)[C@H]2CCCN2C(=O)[C@H]([C@@H](C)O)NC(=O)[C@H](CCCCN)NC(=O)[C@H](CCC(N)=O)NC(=O)[C@@H]2CCCN2C(=O)[C@@H]2CCCN2C(=O)[C@H]([C@@H](C)CC)NC(=O)[C@H](CO)NC(=O)[C@H](C)NC(=O)[C@H]([C@@H](C)O)NC(=O)[C@H](Cc2ccccc2)NC1=O [Example 13] (cyclo([Gly(octyl)]FTASIPPQKT[dP]P))
Response: 2119

Query: Jot down hNE/PPE selectivity (porcine pancreatic elastase (Sus scrofa, UniProt P00772)) of CCCCCCCC[C@@H]1NC(=O)[C@@H]2CCCN2C(=O)[C@H]2CCCN2C(=O)[C@H](CC(N)=O)NC(=O)[C@H](CCCCN)NC(=O)[C@H](CCC(N)=O)NC(=O)[C@@H]2CCCN2C(=O)[C@@H]2CCCN2C(=O)[C@H]([C@@H](C)CC)NC(=O)[C@H](CO)NC(=O)[C@H](C)NC(=O)[C@H]([C@@H](C)O)NC(=O)[C@H](CCc2ccc(O)cc2)NC1=O [Example 48] (cyclo([Gly(octyl)][hTyr]TASIPPQKN[dP]P)) .
Response: 148

Query: Please tell me the measured hNE/PPE selectivity for CCCCCCCC[C@@H]1NC(=O)[C@@H]2CCCN2C(=O)[C@H]2CCCN2C(=O)[C@H](CCO)NC(=O)[C@H](CCCCN)NC(=O)[C@H](CCC(N)=O)NC(=O)[C@@H]2CCCN2C(=O)[C@@H]2CCCN2C(=O)[C@H]([C@@H](C)CC)NC(=O)[C@H](CO)NC(=O)[C@H](C)NC(=O)[C@H]([C@@H](C)O)NC(=O)[C@H](CCC(=O)O)NC1=O [Example 4] (cyclo([Gly(octyl)]ETASIPPQK[hSer][dP]P)) ; system: porcine pancreatic elastase (Sus scrofa, UniProt P00772).
Response: 157

Query: GET hNE/PPE selectivity where system = porcine pancreatic elastase (Sus scrofa, UniProt P00772) and item = CCCCCCCC[C@@H]1NC(=O)[C@H](CCC(=O)O)NC(=O)[C@@H](CCCCN)NC(=O)[C@H]([C@@H](C)O)NC(=O)[C@H](CCCCN)NC(=O)[C@H](CCC(N)=O)NC(=O)[C@@H]2CCCN2C(=O)[C@@H]2CCCN2C(=O)[C@H]([C@@H](C)CC)NC(=O)[C@H](CO)NC(=O)[C@H](C)NC(=O)[C@H]([C@@H](C)O)NC(=O)[C@H](CCC(=O)O)NC1=O [Example 29] (cyclo([Gly(octyl)]ETASIPPQKT[dK]E))
Response: 1085

Origin of the recorded values: patent US10273267B2
